Recorded inhibition at 20 µM for the following compounds
target: KRas G12C mutant (Homo sapiens (Human), UniProt P01116, G12C); experiment: Ras GTP Binding Domain Inhibition Assay, KRas G12C mutant; details: without SOS, read-out: KRas G12C mutant: % inh.
Sequence (P01116 other isoform, or with tags, fused parts or gaps G12C): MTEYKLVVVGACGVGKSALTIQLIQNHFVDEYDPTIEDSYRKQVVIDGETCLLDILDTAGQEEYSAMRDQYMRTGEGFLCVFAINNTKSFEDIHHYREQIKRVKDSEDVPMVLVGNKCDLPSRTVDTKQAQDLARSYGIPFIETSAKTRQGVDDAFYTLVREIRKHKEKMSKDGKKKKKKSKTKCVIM

> print(dat)
                                   compound  experimental.result
1  COCCCCOc1nc(-c2nccn2C)nc2sc(-c3ccn(C(C)C)n3)c(C)c12                   0%
2  COCCN(C)c1nc(-c2nccn2C)nc2sc(-c3ccccc3)c(-c3ccccc3)c12            26 to 45%
3  CO[C@H]1CC[C@@H](Nc2nc(-c3nccn3C)nc3sc(-c4ccn(C)n4)c(-c4ccccc4)c23)C1 (racemic)            26 to 45%

Now turn to the next compound.
Exercise: Name the reported inhibition at 20 µM value associated with the compound COCCO[C@H]1CC[C@@H](Nc2nc(-c3nccn3C)nc3sc(-c4ccn(C(C)C)n4)c(C)c23)C1 (racemic)
Key: 76 to 100%

---

biological target: KRas G12D mutant (Homo sapiens (Human), UniProt P01116, G12D); assay: Ras GTP Binding Domain Inhibition Assay, KRas G12D mutant; details: 20 uM; without SOS; Table 8
Sequence (P01116 other isoform, or with tags, fused parts or gaps G12D): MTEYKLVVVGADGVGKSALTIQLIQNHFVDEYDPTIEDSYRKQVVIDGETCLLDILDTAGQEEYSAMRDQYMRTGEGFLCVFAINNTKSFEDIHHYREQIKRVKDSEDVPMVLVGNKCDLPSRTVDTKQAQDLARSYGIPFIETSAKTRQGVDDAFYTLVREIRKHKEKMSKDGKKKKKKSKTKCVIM
outcome measure: KRas G12D mutant: % inh.

> print(dat)
                                   compound       experimental.result
1  COc1cc(Cn2c(-c3nccn3C)nc3sc(-c4ccn(C(C)C)n4)c(C)c3c2=O)ncn1 [Compound 35]  A (A = 1-25% inhibition)
2  COCCCCOc1nc(-c2nccn2C)nc2sc(-c3ccn(C(C)C)n3)c(C)c12 [Compound 34]  A (A = 1-25% inhibition)

---

Target: KRas Q61H mutant (Homo sapiens (Human), UniProt P01116, Q61H)
Sequence (P01116 other isoform, or with tags, fused parts or gaps Q61H): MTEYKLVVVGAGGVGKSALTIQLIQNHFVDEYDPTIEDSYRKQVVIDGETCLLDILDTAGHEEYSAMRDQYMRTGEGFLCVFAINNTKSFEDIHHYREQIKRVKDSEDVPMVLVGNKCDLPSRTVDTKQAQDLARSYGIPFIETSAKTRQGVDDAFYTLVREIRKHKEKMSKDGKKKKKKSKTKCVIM
Assay: Ras GTP Binding Domain Inhibition Assay, KRas Q61H mutant
Details: 20 μM; without SOS; read-out: KRas Q61H mutant: % inh.
Procedure: A Ras Superfamily Activity Assay (as disclosed in International Application No. PCT/US2018/038613, filed Jun. 20, 2018, which is incorporated by reference in its entirety) was used as a specific assay to evaluate compounds against the following for the following Ras Superfamily proteins: KRas wild type, KRas Q61H mutant, KRas G12C mutant, KRas G12D mutant, Rac-1, and Rho-A. Buffer-I: • 25 mM Tris-HCl, pH 7.4 • 27 mM KCl • 137 mM NaCl • 1 mM MgCl2 • 1 mM DTT […]
outcome measure: inhibition at 20 µM

Look over these answered cases.
> print(dat)
                                   compound      outcome.measure  experimental.result
1  COCCCOc1nc(-c2nccn2C)nc2sc(-c3ccn(C(C)C)n3)c(-c3ccccc3)c12  inhibition at 20 µM                   0%
2  COc1nccc(-c2sc3nc(-c4nccn4C)nc(N[C@H]4C[C@H](OC)C4)c3c2-c2ccccc2)c1F  inhibition at 20 µM            46 to 75%
3  COCCCCn1c(-c2nccn2C)nc2sc(-c3ccn(C(C)C)n3)c(C)c2c1=O  inhibition at 20 µM                   0%

Exercise: Name the reported inhibition at 20 µM value associated with the compound Cc1c(-c2ccn(C(C)C)n2)sc2nc(-c3nccn3C)nc(NCCN3CCS(=O)(=O)CC3)c12
Key: 76 to 100%

Exercise: Name the reported inhibition at 20 µM value associated with the compound COc1cccc(-c2sc3nc(-c4nccn4C)nc(NC4CCC(OC)C4)c3c2C)c1F (racemic)
Key: 46 to 75%

Exercise: Name the reported inhibition at 20 µM value associated with the compound COc1cccc(-c2sc3nc(-c4nccn4C)nc(N[C@H]4C[C@H](OC)C4)c3c2-c2ccccc2)c1F
Key: 76 to 100%

Exercise: Name the reported inhibition at 20 µM value associated with the compound Cc1c(-c2ccn(C(C)C)n2)sc2nc(-c3nccn3C)nc(NCC3COCCN3C)c12 (racemic)
Key: 46 to 75%

Exercise: Name the reported inhibition at 20 µM value associated with the compound CO[C@H]1CNC[C@@H](Nc2nc(-c3nccn3C)nc3sc(-c4ccn(C(C)C)n4)cc23)C1
Key: 46 to 75%

Exercise: Name the reported inhibition at 20 µM value associated with the compound COCCCCOc1nc(-c2nccn2C)nc2sc(-c3ccn(C(C)C)n3)c(C)c12
Key: 0%

Exercise: Name the reported inhibition at 20 µM value associated with the compound Cc1c(-c2ccn(C(C)C)n2)sc2nc(-c3nccn3C)nc(NCCN3CCOCC3)c12
Key: 76 to 100%

Exercise: Name the reported inhibition at 20 µM value associated with the compound COc1cc(Nc2nc(-c3nccn3C)nc3sc(-c4ccn(C(C)C)n4)c(C)c23)ncn1
Key: 76 to 100%

Exercise: Name the reported inhibition at 20 µM value associated with the compound COC1CCCN(c2nc(-c3nccn3C)nc3sc(-c4ccn(C(C)C)n4)c(C)c23)C1 (racemic)
Key: 26 to 45%

Exercise: Name the reported inhibition at 20 µM value associated with the compound COCCCn1c(-c2nccn2C)nc2sc(-c3ccn(C(C)C)n3)c(-c3ccccc3)c2c1=O
Key: 0%

Exercise: Name the reported inhibition at 20 µM value associated with the compound CO[C@@H]1CC[C@H](Nc2nc(-c3nccn3C)nc3sc(-c4ccn(C(C)C)n4)c(-c4ccccc4)c23)C1 (single isomer, unassigned)
Key: 46 to 75%

Exercise: Name the reported inhibition at 20 µM value associated with the compound COCCCn1c(-c2nccn2C)nc2sc(-c3ccn(C(C)C)n3)c(C)c2c1=O
Key: 0%

Exercise: Name the reported inhibition at 20 µM value associated with the compound COCCCOc1nc(-c2nccn2C)nc2sc(-c3ccn(C(C)C)n3)c(C)c12
Key: 46 to 75%

Exercise: Name the reported inhibition at 20 µM value associated with the compound COc1cc(-c2sc3nc(-c4nccn4C)nc(N[C@@H]4CC[C@H](OC)C4)c3c2-c2ccccc2)ccn1 (racemic)
Key: 26 to 45%

Exercise: Name the reported inhibition at 20 µM value associated with the compound COCCNc1nc(-c2nccn2C)nc2sc(-c3ccccc3)c(-c3ccccc3)c12
Key: 46 to 75%

Exercise: Name the reported inhibition at 20 µM value associated with the compound COCCCNc1nc(-c2nccn2C)nc2sc(-c3ccccc3)c(-c3ccccc3)c12
Key: 46 to 75%
